system: HepG2; experiment: cell viability relative to DMSO; higher = less toxic; details: 72 h; 10 nM
The following compounds are listed with their measured cell viability values.
Write the answer as a number in %, unit excluded.

Please review the following examples before continuing.
1. O=C(Nc1cccc(Cl)c1)Nc1ncc(CCNc2ncnc3ccsc23)s1
96.8
2. COc1ccc2cc1Oc1cc3c(cc1OC)CC[N+](C)(C)[C@H]3Cc1ccc(cc1)Oc1c(OC)c(OC)cc3c1[C@@H](C2)[N+](C)(C)CC3
115
3. CC(=O)[C@H]1CC[C@H]2[C@@H]3CC[C@H]4C[C@](C)(O)CC[C@]4(C)[C@H]3CC[C@]12C
108

Switching to the query record.
Problem: Sample O=C(Nc1ncc(SCCN2CCCC2)s1)[C@]1(c2ccc(S(=O)(=O)C3CC3)cc2)C[C@H]1C1CCCCC1 — what was its cell viability?
Solution: 99.2

###

Overview of reported cell viability across a group of compounds:
test system: U2OS; test: cell viability relative to DMSO; higher = less toxic; conditions: 72 h; 10 nM
All answers are understood in %, so give the number only.

Recorded cell viability, per entry:
1. Cc1ccc(/C=C2\CNC/C(=C\c3ccc(C)cc3)C2=O)cc1
106
2. Oc1ccc(-c2c(-c3ccccc3)nn3c(C(F)(F)F)cc(C(F)(F)F)nc23)cc1
96.5
3. CC(C)NC(=O)N1CC[C@H](NC2=Nc3cc(F)ccc3N(CC(F)F)c3ccc(Cl)cc32)C1
104
4. Cn1c(=O)[nH]c2ncn(C)c2c1=O
101

Consider the additional compound presented here.
Problem: Fill blank: measured cell viability of the compound O=C(O)CCCCCCCC(=O)O is ____.
Solution: 103

###

test system: Calu-3; assay: cell viability relative to DMSO; higher = less toxic; conditions: 72 h; 1 nM
# Lookup of reported cell viability keyed by entry
Answer format: numeric, % implied, no suffix.

Reference set, count: 3
1. C[C@]12CC[C@H](O)C[C@H]1CC[C@@H]1[C@@H]2CC[C@]2(C)[C@@H](C3=CC(=O)OC3)CC[C@]12O
97.7
2. Cc1cc(C)cc(NC(=O)Nc2ccc(OS(N)(=O)=O)cc2)c1
104
3. CC[C@H](NC(=O)c1c(O)c(-c2ccccc2)nc2ccccc12)c1ccccc1
104

Problem: Quick check: cell viability of COc1cnc(NS(=O)(=O)c2ccc(N)cc2)nc1 ?
Solution: 97.2

###

Examples of compounds with documented cell viability follow.
system: Caco-2; assay: cell viability relative to DMSO; higher = less toxic; details: 72 h; 100 nM
Counter-ions that a name gives are not always drawn.
Give just the numeric value; % need not be written.

1) CC(C)c1ccc2oc3nc(N)c(C(=O)O)cc3c(=O)c2c1
99.8
2) CC(=O)c1ccc(S(=O)(=O)NC(=O)NC2CCCCC2)cc1 [acetohexamide]
90.7
3) CC/C(=C(\c1ccc(O)cc1)c1ccc(OCCNC)cc1)c1ccccc1 [Endoxifen HCl]
106
4) N#Cc1cccc(-c2nc(-c3cccnc3)no2)c1
90.9
5) OCCN(CCO)c1nc(N2CCCCC2)c2nc(N(CCO)CCO)nc(N3CCCCC3)c2n1
102

Next, consider the following compound.
Problem: Which measured cell viability value corresponds to CC(CCc1ccccc1)NCC(O)c1ccc(O)c(C(N)=O)c1 (centres undefined) ?
Solution: 89.4

###

system: Vero E6; assay: cell viability relative to DMSO; higher = less toxic; details: 72 h; 1 nM
MEASUREMENT LABEL: cell viability (%)
The reply should be a number in %, with the unit left off.

1) Cc1nnsc1C(=O)Nc1ccc(-n2nc(C(F)(F)F)cc2C(F)(F)F)cc1
95.9

Problem: Entry CCOc1ccc(-c2ccc(Cn3c(CC(C)(C)C(=O)O)c(SC(C)(C)C)c4cc(OCc5ccc(C)cn5)ccc43)cc2)cn1 : reported cell viability = ?
Solution: 98.6

Problem: Can you check Oc1ccc(-c2c(-c3ccccc3)nn3c(C(F)(F)F)cc(C(F)(F)F)nc23)cc1 next?
Solution: 105

Problem: Also, C[C@@H]1COCCN1c1cc(=O)n2c(n1)N(Cc1cncc(Cl)c1)[C@H](C(F)(F)F)CC2 please.
Solution: 105

###

# key: entry, value: drug-induced phospholipidosis
tested on: A549-ACE2; assay: drug-induced phospholipidosis relative to tamoxifen; higher = more phospholipidosis; conditions: 10 µM; 72 h
Structures can show the parent of a compound that is named as a salt.
Answer with a number only, understood to be in %.

Problem: For CC/C(=C(\c1ccc(O)cc1)c1ccc(OCCNC)cc1)c1ccccc1 [Endoxifen HCl] , what is its reported drug-induced phospholipidosis?
Solution: 88.4

Problem: Entry CCSc1ccc2c(c1)N(CCCN1CCN(C)CC1)c1ccccc1S2 [thiethylperazine] please
Solution: 104

Problem: Consider next the compound CNc1cc(OC)c(C(=O)NC2CCN(Cc3ccccc3)C2C)cc1Cl (stereo not given) [nemonapride] in the same way.
Solution: 24.2

Problem: What do we get for C[C@@H](NCCCc1cccc(C(F)(F)F)c1)c1cccc2ccccc12 [cinacalcet] ?
Solution: 102

Problem: Subsequent entry: Cc1ccc(S(=O)(=O)/C=C/C#N)cc1 [BAY-11-7082]
Solution: -1.18

###

test system: Vero E6; assay: cell viability relative to DMSO; higher = less toxic; details: 72 h; 100 nM
Listed here are molecules together with their documented cell viability.
Use % as the unit, but write only the number.

1) C[C@H](CCC(=O)O)[C@H]1CC[C@H]2[C@@H]3C(=O)C[C@@H]4CC(=O)CC[C@]4(C)[C@H]3CC(=O)[C@]12C [dehydrocholate-acid]
91.2
2) O=C1c2ccccc2C(Cc2ccnc(F)c2)(Cc2ccnc(F)c2)c2ccccc21
100
3) CCN(CC)CCCCNc1ncc2cc(-c3c(Cl)cccc3Cl)c(NC(=O)NC(C)(C)C)nc2n1
104
4) CCCCCCc1ccc(O)cc1O
106
5) COc1cc2cc(c1Cl)N(C)C(=O)C[C@H](OC(=O)C(C)C)[C@]1(C)O[C@@H]1[C@H](C)[C@@H]1C[C@@](O)(NC(=O)O1)[C@H](OC)/C=C/C=C(\C)C2
29.8

Problem: Looking for the measured cell viability of O=C(O)c1ccc(S(=O)(=O)N(Cc2ccc(OC(F)(F)F)cc2)c2ncc(C(F)(F)F)cc2Cl)cc1 , can you help?
Solution: 99.3

Problem: Next molecule: O=S(=O)(c1cccc2c(Cl)cccc12)N1CCCNCC1
Solution: 87.9

Problem: Another molecule to look at: CCCN(CCC)[C@H]1CCc2cccc(O)c2C1 [8-hydroxy-DPAT]
Solution: 99.2

###

system: U2OS; assay: relative viability EC50 (midpoint between 100% and the lowest measured viability); higher = less toxic; settings: 72 h
List of relative viability EC50 values.

1. CCC(=O)c1ccc(OCC(O)CN2CCN(c3ccccc3)CC2)cc1 (stereo not drawn) [centpropazine]
> 10 µM
2. C[C@@](Cc1ccc(O)c(O)c1)(NN)C(=O)O [carbidopa]
> 10 µM

Turning to the following molecule.
Problem: Using the record for O=S(=O)(c1cccc2c(Cl)cccc12)N1CCCNCC1 [ML9] , report its relative viability EC50.
Solution: > 10 µM

###

Attribute: cell viability
tested on: Caco-2; assay: cell viability relative to DMSO; higher = less toxic; conditions: 72 h; 10 nM
Express your answer in %, writing the number without its unit.

Examples with their reported cell viability follow.
1. CCC(=O)O[C@]1(C(=O)COC(C)=O)CC[C@H]2[C@@H]3C[C@H](C)C4=CC(=O)C=C[C@]4(C)[C@H]3[C@@H](O)C[C@@]21C [methylprednisolone-aceponate]
95.1
2. CC(C)n1cnc2c(C(=O)N[C@H]3CN4CCC3CC4)cc(Cl)cc21
106
3. O=c1[nH]cnc2nc[nH]c12
87
4. CC(C)C[C@@H](C(=O)N[C@H](C(=O)OC1CCCC1)c1ccccc1)[C@H](O)C(=O)NO
105
5. O/N=C/c1ccc(-c2ccc(O)c(F)c2)c(Cl)c1O
95.2
6. CC(C)C(N)C(=O)O (stereo in doubt)
91.3
7. C[C@]12CC[C@H](O)C[C@H]1CC[C@@H]1[C@@H]2CC[C@]2(C)[C@@H](C3=CC(=O)OC3)CC[C@]12O
84.9
8. Cn1c(=O)[nH]c2ncn(C)c2c1=O
106
9. CCCCCCCCCCCCCCC[C@@H](O)[C@@H](N)CO
85.3
10. c1cnc2cc3c(cc2n1)[C@@H]1CNC[C@H]3C1
91.9

Problem: Need cell viability of N#CC(Cc1ccc(O)cc1)c1ccc(O)cc1 (stereo unspecified) , thanks.
Solution: 103

Problem: Same question, Nc1ccc(-c2ccc3ncc4ccc(=O)n(-c5cccc(C(F)(F)F)c5)c4c3c2)cn1 this time
Solution: 69.1

Problem: Same question, c1cc2c(cc1[C@H]1OC[C@H]3[C@@H]1CO[C@@H]3c1ccc3c(c1)OCO3)OCO2 this time
Solution: 95

Problem: # iterate: CCCCCCCCCCCCCCCCCCCCCCO
Solution: 92.2

Problem: Ok, now CC[C@@H]1C(=O)N(C)c2cnc(Nc3ccc(C(=O)N[C@H]4CC[C@H](N5CCN(CC6CC6)CC5)CC4)cc3OC)nc2N1C(C)C
Solution: 93.2
